All values here come from patent US12421238B2.

Consider the following molecules; for each one, report its JAK1/JAK2.
target: JAK2 (Homo sapiens); assay: Kinase activity test on JAK2 (Caliper EZ Reader conversion rate); conditions: ratio of IC50 values, selectivity for JAK2 over JAK1
Sequence (O60674 whole entry): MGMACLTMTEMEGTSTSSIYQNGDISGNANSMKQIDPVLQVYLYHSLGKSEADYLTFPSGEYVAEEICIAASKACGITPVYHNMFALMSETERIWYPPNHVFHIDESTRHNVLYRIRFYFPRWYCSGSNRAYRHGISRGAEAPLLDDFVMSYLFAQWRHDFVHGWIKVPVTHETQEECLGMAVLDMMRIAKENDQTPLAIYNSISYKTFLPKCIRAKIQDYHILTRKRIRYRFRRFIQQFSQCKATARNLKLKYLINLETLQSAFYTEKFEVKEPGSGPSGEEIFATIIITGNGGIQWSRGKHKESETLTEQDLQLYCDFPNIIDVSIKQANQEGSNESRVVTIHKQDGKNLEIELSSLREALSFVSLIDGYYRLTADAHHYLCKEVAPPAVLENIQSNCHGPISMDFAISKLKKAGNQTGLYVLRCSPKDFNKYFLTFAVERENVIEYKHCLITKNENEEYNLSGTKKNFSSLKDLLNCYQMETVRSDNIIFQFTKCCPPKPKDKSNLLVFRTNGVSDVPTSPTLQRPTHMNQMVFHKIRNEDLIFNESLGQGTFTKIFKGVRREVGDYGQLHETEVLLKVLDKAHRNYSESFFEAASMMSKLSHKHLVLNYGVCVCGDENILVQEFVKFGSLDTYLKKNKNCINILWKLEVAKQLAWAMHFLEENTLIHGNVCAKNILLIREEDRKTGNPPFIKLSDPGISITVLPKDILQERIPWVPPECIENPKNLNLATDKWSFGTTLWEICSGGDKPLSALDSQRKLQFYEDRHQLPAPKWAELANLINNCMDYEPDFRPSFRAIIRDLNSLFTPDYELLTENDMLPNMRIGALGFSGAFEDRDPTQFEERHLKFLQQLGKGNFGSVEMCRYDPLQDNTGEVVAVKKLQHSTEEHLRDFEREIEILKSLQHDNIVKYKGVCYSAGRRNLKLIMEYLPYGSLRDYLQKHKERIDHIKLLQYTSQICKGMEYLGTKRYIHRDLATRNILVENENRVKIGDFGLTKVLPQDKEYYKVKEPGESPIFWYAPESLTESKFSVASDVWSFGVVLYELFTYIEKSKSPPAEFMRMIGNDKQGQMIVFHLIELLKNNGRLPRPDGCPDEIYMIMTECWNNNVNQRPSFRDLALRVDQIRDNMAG
# output: bare number, no unit

Could you tell me which JAK1/JAK2 is on file for CN1CCN(Cc2ccc(Nc3ncc4c(n3)N(c3cccc(S(=O)(=O)NC(C)(C)C)c3)CC4)cc2)CC1 [Compound I-12] ?
140

What does the data say about its JAK1/JAK2? Entry: CC(C)(C)NS(=O)(=O)c1cccc(N2CCc3cnc(Nc4ccc(OCCN5CCSCC5)cc4)nc32)c1 [Compound I-14]
93

Quick one: JAK1/JAK2 for CC(C)(C)NS(=O)(=O)c1cccc(N2CCc3cnc(Nc4ccc(CN5CCCC5)cc4)nc32)c1 [Compound I-22] ?
175

Name the recorded JAK1/JAK2 for CN1CCC(Cc2ccc(Nc3ncc4c(n3)N(c3cccc(S(=O)(=O)NC(C)(C)C)c3)CC4)cc2)CC1 [Compound I-7] .
114

Reported JAK1/JAK2, molecule CC(C)(C)NS(=O)(=O)c1cccc(N2CCc3cnc(Nc4ccc(OCCN5CCOCC5)cc4)nc32)c1 [Compound I-3] : ____
100

Consider the molecule CC(C)(C)NS(=O)(=O)c1cccc(N2CCc3cnc(Nc4ccc(N5CCCCC5)cc4)nc32)c1 [Compound I-18] and give its measured JAK1/JAK2.
156

Reported JAK1/JAK2 for CN1CCN(CCOc2ccc(Nc3ncc4c(n3)N(c3cccc(S(=O)(=O)NC(C)(C)C)c3)CC4)cc2)CC1 [Compound I-4] : what is it?
87

Can you look up the measured JAK1/JAK2 of CCN1CCN(Cc2ccc(Nc3ncc4c(n3)N(c3cccc(S(=O)(=O)NC(C)(C)C)c3)CC4)cc2)CC1 [Compound I-8] for me?
126

Need JAK1/JAK2 of CN1CCC(c2ccc(Nc3ncc4c(n3)N(c3cccc(S(=O)(=O)NC(C)(C)C)c3)CC4)cc2)CC1 [Compound I-21] , thanks.
126

Data request, read-out JAK1/JAK2, for CC(C)(C)NS(=O)(=O)c1cccc(N2CCc3cnc(Nc4ccc(OCCN5CCNCC5)cc4)nc32)c1 [Compound I-2]
172

Which JAK1/JAK2 is reported for this molecule? CC(C)(C)NS(=O)(=O)c1cccc(N2CCc3cnc(Nc4ccc(N5CCNCC5)cc4)nc32)c1 [Compound I-16]
101

Look up JAK1/JAK2: CC(C)(C)NS(=O)(=O)c1cccc(N2CCc3cnc(Nc4ccc(CN5CCSCC5)cc4)nc32)c1 [Compound I-13]
89

Need JAK1/JAK2 of CC(C)(C)NS(=O)(=O)c1cccc(N2CCc3cnc(Nc4ccc(C5CCNCC5)cc4)nc32)c1 [Compound I-20] , thanks.
130

GET /values?readout=JAK1/JAK2&item= CC(C)(C)NS(=O)(=O)c1cccc(N2CCc3cnc(Nc4ccc(OCCN5CCCC5)cc4)nc32)c1 [Compound I-1]
84

// JAK1/JAK2 lookup, key: CC(C)(C)NS(=O)(=O)c1cccc(N2CCc3cnc(Nc4ccc(CN5CCOCC5)cc4)nc32)c1 [Compound I-11]
131

====

Consider the following compounds; for each one, report its AUC(0-t).
assay: Pharmacokinetic test in SD rats, intragastric administration; type: in vivo; settings: rat, po, single intragastric administration, 25 mg/kg, plasma, read-out: Curve area AUClast
Lab book: enter the figure in ng·h/mL, no units written.

Which AUC(0-t) reading was recorded for the compound Cc1cnc(Nc2ccc(OCCN3CCCC3)cc2)nc1Nc1cccc(S(=O)(=O)NC(C)(C)C)c1 [Fedratinib, reference compound] ?
559

Requested read-out: AUC(0-t). Entry: `CC(C)(C)NS(=O)(=O)c1cccc(N2CCc3cnc(Nc4ccc(OC5CCNCC5)cc4)nc32)c1`
935

Tell me the measured AUC(0-t) of `CC(C)(C)NS(=O)(=O)c1cccc(N2CCc3cnc(Nc4ccc(OCCN5CCNCC5)cc4)nc32)c1` , please.
839

If you can, please state the reported AUC(0-t) value of `CC(C)(C)NS(=O)(=O)c1cccc(N2CCc3cnc(Nc4ccc(OCCN5CCOCC5)cc4)nc32)c1` .
903

Looking for the measured AUC(0-t) of `CN1CCN(CCOc2ccc(Nc3ncc4c(n3)N(c3cccc(S(=O)(=O)NC(C)(C)C)c3)CC4)cc2)CC1` , can you help?
807

Any idea what AUC(0-t) was measured for `CC(C)(C)NS(=O)(=O)c1cccc(N2CCc3cnc(Nc4ccc(OCCN5CCCC5)cc4)nc32)c1` ?
798

Entry `CC(C)(C)NS(=O)(=O)c1cccc(N2CCc3cnc(Nc4ccc(C5CCNCC5)cc4)nc32)c1` : reported AUC(0-t) = ?
912
